# Tested on: CSNK1D;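 further: KINOMEscan kinase panel screen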
# condition-notes: concentration: 1 μM, replicates: in singlicate; n = 1
readout-type: %Inh (%)
Numbers only, in %.

As a guide, the following entries are already answered.
- compound: "Cc1cc(-c2ccc3c(c2)CC[C@@H](N[C@@H](C)c2ccccc2)C3)cnc1N.Cl"
  %Inh, %: 35
- compound: "Cc1c(O)cccc1Nc1ccnc2ccc(C(F)(F)F)cc12.Cl"
  %Inh, %: 0
- compound: "COc1ccc(CNC(=O)NC2CCN(c3ccnc(Nc4cc(OC)c(OC)c(OC)c4)n3)C2)cc1 (centres unmarked)"
  %Inh, %: 0
- compound: "Cn1ccc2ncnc(Oc3ccc(Nc4nc5ccccc5[nH]4)cc3)c21"
  %Inh, %: 0

API: the following record is the query input.
Tell me the measured %Inh of Fc1cccc(COc2nnc(-c3ccc4c(c3)CCO4)o2)c1 , please.
0

Origin of measurements: paper PMC5540273
